- protocol_notes: qHTS profiling for inhibitors of Plasmodium falciparum (3D7) proliferation (AID 743322);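 note: infected erythrocytes exposed to compound for 72 h before lysis; 100% = DMSO vehicle wells and 0% = 0.29 µM artemisinin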
- test_context: P. falciparum 3D7 proliferation; at 28.7 µM (top of the series)
- Experimental: Plasmodium falciparum is a virulent malarial parasite that kills 1-2 million people worldwide each year. […] Because mature erythrocytes lack DNA, only Plasmodium-derived DNA is detected. The SYBR Green viability assay was adapted from a method described previously (Plouffe et al., 2008). […] The following morning, fluorescence intensity at 485(14) nm excitation and 535(25) nm emission wavelengths was measured on an EnVision (Perkin Elmer) plate reader. […]
observed_property: remaining parasite growth % (stronger effect = lower value)

| smiles_entry | recorded_measurement |
| --- | --- |
| CN1CC[C@@H](c2c(O)cc(O)c3c(=O)cc(-c4ccccc4Cl)oc23)[C@@H](O)C1 | 3.4% |
| Cc1cnc(Nc2ccc(F)cc2Cl)nc1-c1c[nH]c(C(=O)N[C@H](CO)c2cccc(Cl)c2)c1 | 7.37% |
| C=CC(=O)Nc1cc2c(Nc3ccc(F)c(Cl)c3)ncnc2cc1OCCCN1CCOCC1 | -0.797% |
| CC[C@@H]1C(=O)N(C)c2cnc(Nc3ccc(C(=O)NC4CCN(C)CC4)cc3OC)nc2N1C1CCCC1 | 0.0061% |
| COc1cc(=C2C=c3ccccc3=N2)[nH]c1=Cc1[nH]c(C)cc1C | 2.05% |
| C[C@@]12O[C@@H](C[C@]1(O)CO)n1c3ccccc3c3c4c(c5c6ccccc6n2c5c31)CNC4=O | -0.0626% |
| COc1cc(C(C)C)c2c(c1)S(=O)(=O)N(COc1cc(=O)n3cccc(OCCN4CCCCC4)c3n1)C2=O | 105% |
| CC(C)(C)c1cc(C(C)(C)C)c(NC(=O)c2c[nH]c3ccccc3c2=O)cc1O | 33.5% |
| CN1CCC(CNc2ccc3ncc(-c4cccc(OC(F)(F)F)c4)n3n2)CC1 | -1.19% |

====

Listed next: entries and their corresponding Potency.
- protocol_notes: qHTS assay to identify inhibitors of the type 1 interferon - major histocompatibility complex class I in skeletal muscle: Counter screen cell viability and HiBit confirmation (AID 1347412); note: potency is the fitted concentration of half-maximal effect; nearly all actives have a fitted effect of over 60% in size
- test_context: iHSKM muscle cells + IFN-b, HiBiT or CellTiter-Glo, 24 h; HiBiT
Records with an inconclusive call do not appear. The source made the active and inactive calls. Calls come from the whole dose curve; as a rule, active = well fitted inhibition curve with a large enough effect; inconclusive = small, poorly fitted or top-dose-only effect; inactive = no such curve, though single readings can be large or run the other way.

| smiles_entry | Potency |
| --- | --- |
| Cc1ccc(C(N)=O)cc1Nc1nccc(-c2cn(C(C)C)c3cnccc23)n1 | 2.49 µM (active) |
| CC(C)c1ccc(Cn2ccc3c4c(N)nc(NC5CC5)nc4ccc32)cc1 | 17.6 µM (active) |
| Fc1cc(-c2cccc3ncc(-c4cnn(C5CCNCC5)c4)nc23)cc(F)c1CN1CCOCC1 | 19.8 µM (active) |
| C[C@@H](Oc1cc(-c2cnn(C3CCNCC3)c2)cnc1N)c1c(Cl)ccc(F)c1Cl | 17.6 µM (active) |
| Nc1nc(NCCNc2ncc(-n3ccnc3)c(-c3ccc(Cl)cc3Cl)n2)ccc1[N+](=O)[O-] | 15.7 µM (active) |
| Nc1nc(Nc2ccc(S(N)(=O)=O)cc2)nn1C(=O)c1c(F)cccc1F | 2.49 µM (active) |
| C=CC(=O)Nc1cc2c(Nc3ccc(F)c(Cl)c3)ncnc2cc1OCCCN1CCOCC1 | 15.7 µM (active) |
| CC(C)c1cnn2c(NCc3ccccc3)cc(N[C@@H](CO)[C@H](O)CO)nc12 | 0.157 µM (active) |
| CCc1c2c(nc3ccc(O)cc13)-c1cc3c(c(=O)n1C2)COC(=O)[C@]3(O)CC | 1.4 µM (active) |
| CC(C)C[C@H](NC(=O)CNC(=O)c1cc(Cl)ccc1Cl)B(O)O | 0.557 µM (active) |
